Catalogue of compounds with associated log10 of IC50
Target of assay: PDK1 (Homo sapiens, UniProt O15530)
Sequence (O15530 1-556): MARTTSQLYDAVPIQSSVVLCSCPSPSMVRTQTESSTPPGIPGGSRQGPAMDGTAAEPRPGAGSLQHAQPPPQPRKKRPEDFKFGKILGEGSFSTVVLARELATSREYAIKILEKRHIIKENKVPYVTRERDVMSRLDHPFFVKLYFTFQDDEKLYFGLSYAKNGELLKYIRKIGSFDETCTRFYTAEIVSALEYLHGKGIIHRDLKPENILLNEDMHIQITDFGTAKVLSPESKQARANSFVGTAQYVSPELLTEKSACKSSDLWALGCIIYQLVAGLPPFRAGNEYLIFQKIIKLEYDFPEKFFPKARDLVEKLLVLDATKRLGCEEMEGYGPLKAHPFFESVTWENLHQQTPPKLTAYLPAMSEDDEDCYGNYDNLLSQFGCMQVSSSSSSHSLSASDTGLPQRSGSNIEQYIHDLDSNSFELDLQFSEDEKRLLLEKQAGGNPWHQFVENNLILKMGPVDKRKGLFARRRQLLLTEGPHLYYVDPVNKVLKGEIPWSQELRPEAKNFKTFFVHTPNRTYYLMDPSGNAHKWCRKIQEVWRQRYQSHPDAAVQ
Property label: log10 of IC50 (log10 of the value in nM)

Compound: Cc1[nH]nc(-c2nc3ccc(-c4cc5ccccc5[nH]4)cc3[nH]2)c1C(=O)NC1CCNCC1 [Example 8]
log10 of IC50: 1.28

Compound: Cc1[nH]nc(-c2nc3cc4cn[nH]c4cc3[nH]2)c1C(=O)NCC1CCNCC1 [Example 22]
log10 of IC50: 2.04

Compound: Cc1[nH]nc(-c2nc3ccc(C(=O)NCC(C)c4ccccc4)cc3[nH]2)c1C(=O)NC1CCNCC1 (stereo not shown) [Example 32]
log10 of IC50: 1.56

Compound: Cc1[nH]nc(-c2nc3cc4ccccc4cc3[nH]2)c1C(=O)NCC1CCCN1 (stereo not shown) [Example 26]
log10 of IC50: 2.72

Compound: Cc1[nH]nc(-c2nc3cc(Cl)c(C(C)C)cc3[nH]2)c1C(=O)NC1CN2CCC1CC2 (stereo not shown) [Example 44]
log10 of IC50: 2.15

Compound: Cc1[nH]nc(-c2nc3ccccc3[nH]2)c1C(=O)NC1CCNCC1 [Example 1]
log10 of IC50: 2.03

====

Target of assay: PKA (Homo sapiens)
pIC50: −log10 of the molar value.
Catalogue of compounds with associated pIC50

Compound: COCCNC(=O)c1ccc2nc(-c3n[nH]c(C)c3C(=O)NC3CCNCC3)[nH]c2c1 [Example 31]
Target of assay: PKA (Homo sapiens)
Relation symbol: =
pIC50: 5.09
--
Compound: Cc1[nH]nc(-c2nc3cc(F)c(F)cc3[nH]2)c1C(=O)NC1CCNCC1 [Example 13]
Target of assay: PKA (Homo sapiens)
Relation symbol: =
pIC50: 4.71
--
Compound: Cc1[nH]nc(-c2nc3ccc(NC(=O)C(C)C)cc3[nH]2)c1C(=O)NC1CCN(C)CC1 [Example 21]
Target of assay: PKA (Homo sapiens)
Relation symbol: =
pIC50: 4.88
--
Compound: Cc1[nH]nc(-c2nc3ccccc3[nH]2)c1C(=O)NC1CCCNC1 (centres unmarked) [Example 19]
Target of assay: PKA (Homo sapiens)
Relation symbol: =
pIC50: 4.96
--
Compound: Cc1[nH]nc(-c2nc3ccc(C(F)(F)F)cc3[nH]2)c1C(=O)NCC1CCCNC1 (centres unmarked) [Example 39]
Target of assay: PKA (Homo sapiens)
Relation symbol: <
pIC50: 4.30
--
Compound: CCOC(=O)c1ccc2nc(-c3n[nH]c(C)c3C(=O)NC3CCNCC3)[nH]c2c1 [Example 6]
Target of assay: PKA (Homo sapiens)
Relation symbol: =
pIC50: 4.40
--
Compound: Cc1[nH]nc(-c2nc3ccccc3[nH]2)c1C(=O)NCCCCN [Example 16]
Target of assay: PKA (Homo sapiens)
Relation symbol: =
pIC50: 4.68
--
Compound: Cc1[nH]nc(-c2nc3cc(Cl)ccc3[nH]2)c1C(=O)NC1CCNCC1 [Example 17]
Target of assay: PKA (Homo sapiens)
Relation symbol: =
pIC50: 5.04

====

# collection of IC50 values tested on UniProt:O14757
# Sequence (O14757 whole entry): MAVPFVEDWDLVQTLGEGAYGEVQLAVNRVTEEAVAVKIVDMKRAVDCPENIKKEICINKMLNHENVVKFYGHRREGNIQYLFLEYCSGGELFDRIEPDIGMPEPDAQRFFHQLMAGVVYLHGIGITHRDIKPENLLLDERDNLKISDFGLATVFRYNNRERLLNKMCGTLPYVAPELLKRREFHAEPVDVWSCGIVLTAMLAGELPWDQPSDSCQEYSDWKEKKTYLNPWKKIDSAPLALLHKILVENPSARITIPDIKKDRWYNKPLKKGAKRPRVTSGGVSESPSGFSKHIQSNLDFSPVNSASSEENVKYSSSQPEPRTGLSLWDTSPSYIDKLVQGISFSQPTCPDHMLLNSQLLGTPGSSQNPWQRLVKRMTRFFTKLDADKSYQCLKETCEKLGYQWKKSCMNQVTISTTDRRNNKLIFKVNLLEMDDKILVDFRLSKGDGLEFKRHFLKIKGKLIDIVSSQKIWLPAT

Compound: Cc1[nH]nc(-c2nc3ccccc3[nH]2)c1C(=O)NCCCCN [Example 16]
Units: nM
IC50: 213
--
Compound: Cc1[nH]nc(-c2nc3cc(Cl)c(Cl)cc3[nH]2)c1C(=O)NC1CCNCC1 [Example 15]
Units: nM
IC50: 295
--
Compound: Cc1[nH]nc(-c2nc3cc(C(=O)NC(C)C)ccc3[nH]2)c1C(=O)NC1CCNCC1 [Example 24]
Units: nM
IC50: 36
--
Compound: Cc1[nH]nc(-c2nc3cc(F)c(NC(=O)C4CC4)cc3[nH]2)c1C(=O)NC1CCN(C)CC1 [Example 34]
Units: nM
IC50: 13
--
Compound: Cc1[nH]nc(-c2nc3ccc(C(C)C)cc3[nH]2)c1C(=O)NC1CN2CCC1CC2 (centres unmarked) [Example 42]
Units: nM
IC50: 50
--
Compound: CCOC(=O)c1ccc2nc(-c3n[nH]c(C)c3C(=O)NC3CCNCC3)[nH]c2c1 [Example 6]
Units: nM
IC50: 23
--
Compound: Cc1[nH]nc(-c2nc3c(F)c(F)ccc3[nH]2)c1C(=O)NC1CCNCC1 [Example 12]
Units: nM
IC50: 609
--
Compound: Cc1[nH]nc(-c2nc3cc4cn[nH]c4cc3[nH]2)c1C(=O)NC1CCNCC1 [Example 14]
Units: nM
IC50: 6

====

Target of assay: Akt1 (Homo sapiens)
pIC50: −log10 of the molar value.

Compound: Cc1[nH]nc(-c2nc3ccc(C(C)C)cc3[nH]2)c1C(=O)NC1CN2CCC1CC2 (stereo not shown) [Example 42]
pIC50: < 5.00
//
Compound: Cc1[nH]nc(-c2nc3ccccc3[nH]2)c1C(=O)NCCCN [Example 4]
pIC50: < 4.30
//
Compound: Cc1[nH]nc(-c2nc3cc(Cl)c(C(C)C)cc3[nH]2)c1C(=O)NC1CCNCC1 [Example 45]
pIC50: < 5.00
//
Compound: Cc1[nH]nc(-c2nc3ccc(C(F)(F)F)cc3[nH]2)c1C(=O)NCC1CCCNC1 (stereo not shown) [Example 39]
pIC50: < 5.00

====

# collection of IC50 values tested on PKA (Homo sapiens, UniProt P17612)
Property label: IC50

Compound: Cc1cc2nc(-c3n[nH]c(C)c3C(=O)NC3CCCNC3)[nH]c2cc1C (stereo not drawn) [Example 2]
Observed: 7.84 µM

Compound: Cc1[nH]nc(-c2nc3cc(Cl)c(C(C)C)cc3[nH]2)c1C(=O)NC1CN2CCC1CC2 (stereo not drawn) [Example 44]
Observed: 12 µM

Compound: Cc1[nH]nc(-c2nc3cc4nc[nH]c4cc3[nH]2)c1C(=O)NC1CCNCC1 [Example 11]
Observed: 7.77 µM

====

# collection of IC50 values tested on Akt1 (Homo sapiens, UniProt P31749)
# Sequence (P31749 whole entry, species assumed): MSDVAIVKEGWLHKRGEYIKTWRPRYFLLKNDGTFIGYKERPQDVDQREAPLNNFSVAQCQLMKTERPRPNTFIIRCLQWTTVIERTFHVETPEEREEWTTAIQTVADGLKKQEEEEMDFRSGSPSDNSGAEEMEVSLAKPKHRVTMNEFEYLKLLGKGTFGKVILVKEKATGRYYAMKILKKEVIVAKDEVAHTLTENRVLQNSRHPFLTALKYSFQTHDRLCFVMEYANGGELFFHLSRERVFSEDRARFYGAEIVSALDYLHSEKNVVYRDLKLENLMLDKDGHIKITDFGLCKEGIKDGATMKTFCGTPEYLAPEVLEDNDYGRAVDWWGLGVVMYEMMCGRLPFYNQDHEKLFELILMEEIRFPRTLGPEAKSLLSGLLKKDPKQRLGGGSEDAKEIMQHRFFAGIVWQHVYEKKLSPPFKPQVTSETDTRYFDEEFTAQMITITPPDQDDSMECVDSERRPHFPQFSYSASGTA
Property label: IC50 (µM)

Molecule: Cc1[nH]nc(-c2nc3ccc(-c4cc5ccccc5[nH]4)cc3[nH]2)c1C(=O)NC1CCNCC1 [Example 8]
Relation symbol: =
Observed: 5.84
//
Molecule: Cc1[nH]nc(-c2nc3ccc(NC(=O)CC(C)C)cc3[nH]2)c1C(=O)NC1CCN(C)CC1 [Example 33]
Relation symbol: =
Observed: 47.5
//
Molecule: Cc1[nH]nc(-c2nc3cc(Cl)ccc3[nH]2)c1C(=O)NC1CCNCC1 [Example 17]
Relation symbol: >
Observed: 50
//
Molecule: Cc1[nH]nc(-c2nc3cc4nc[nH]c4cc3[nH]2)c1C(=O)NC1CCNCC1 [Example 11]
Relation symbol: >
Observed: 50
//
Molecule: Cc1[nH]nc(-c2nc3ccc(C(F)(F)F)cc3[nH]2)c1C(=O)NC1CCNCC1 [Example 38]
Relation symbol: >
Observed: 10
//
Molecule: Cc1cc2nc(-c3n[nH]c(C)c3C(=O)NC3CCCNC3)[nH]c2cc1C (stereo not shown) [Example 2]
Relation symbol: =
Observed: 15.9
//
Molecule: Cc1[nH]nc(-c2nc3ccccc3[nH]2)c1C(=O)NC1CCN(Cc2ccccc2)CC1 [Example 10]
Relation symbol: >
Observed: 50

====

Target of assay: UniProt O15530
Sequence (O15530 1-556): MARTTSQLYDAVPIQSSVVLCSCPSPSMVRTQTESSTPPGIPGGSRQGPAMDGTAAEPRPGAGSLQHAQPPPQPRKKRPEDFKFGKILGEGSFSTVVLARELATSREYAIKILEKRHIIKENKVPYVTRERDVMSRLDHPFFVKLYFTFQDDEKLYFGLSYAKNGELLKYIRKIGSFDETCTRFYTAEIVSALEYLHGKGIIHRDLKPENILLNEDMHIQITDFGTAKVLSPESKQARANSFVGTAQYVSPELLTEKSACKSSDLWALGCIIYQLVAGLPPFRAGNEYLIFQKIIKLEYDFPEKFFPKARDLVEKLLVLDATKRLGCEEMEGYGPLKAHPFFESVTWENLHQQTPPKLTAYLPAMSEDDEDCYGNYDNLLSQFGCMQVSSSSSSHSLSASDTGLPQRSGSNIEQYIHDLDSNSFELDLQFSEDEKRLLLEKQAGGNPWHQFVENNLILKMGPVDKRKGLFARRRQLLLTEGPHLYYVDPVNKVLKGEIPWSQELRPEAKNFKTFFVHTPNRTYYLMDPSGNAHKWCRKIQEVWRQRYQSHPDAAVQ
pIC50: −log10 of the molar value.
Catalogue of molecules with associated pIC50

Molecule: Cc1[nH]nc(-c2nc3ccc(C(C)C)cc3[nH]2)c1C(=O)NC1CN2CCC1CC2 (stereo not shown) [Example 42]
Relation symbol: =
pIC50: 7.35
--
Molecule: Cc1[nH]nc(-c2nc3ccc(C4CC4)cc3[nH]2)c1C(=O)NC1CN2CCC1CC2 (stereo not shown) [Example 47]
Relation symbol: =
pIC50: 6.97
--
Molecule: Cc1[nH]nc(-c2nc3ccccc3[nH]2)c1C(=O)NCCCN [Example 4]
Relation symbol: =
pIC50: 6.67
--
Molecule: Cc1[nH]nc(-c2nc3cc4ccccc4cc3[nH]2)c1C(=O)NCC1CCNC1 (stereo not shown) [Example 27]
Relation symbol: =
pIC50: 6.84
--
Molecule: Cc1[nH]nc(-c2nc3ccc(C(C)C)cc3[nH]2)c1C(=O)NC1CC2CCC(C1)N2C (stereo not shown) [Example 49]
Relation symbol: >
pIC50: 6.30
--
Molecule: Cc1[nH]nc(-c2nc3ccccc3[nH]2)c1C(=O)NCCN [Example 50]
Relation symbol: >
pIC50: 6.30
--
Molecule: Cc1[nH]nc(-c2nc3cc(C(=O)NC(C)C)ccc3[nH]2)c1C(=O)NC1CCNCC1 [Example 24]
Relation symbol: =
pIC50: 7.34
